Hey, just so you know, these numbers are from paper PMC11845477.

Test system: K. pneumoniae ATCC 10031 (SEN) and K. pneumoniae ATCC 700603 (MDR)
assayText: Frequency-of-resistance (FoR) assay, relative MIC of mutants
Type: cell-based, Klebsiella pneumoniae
settings: Klebsiella pneumoniae ATCC 10031 (KP-SEN); evolved line 1 versus ancestor
Where a SMILES comes first, the peptide text is derived from it. Bridges are numbered along the chain shown (N, C = ends). [ ]: non-standard residue; d: D form. The star is where a group is joined. X1 = NC[C@@H](CC(=O)*)c1cccc(Cl)c1; Dab = NCC[C@H](N)C(=O)O; Dap = NC[C@H](N)C(=O)O
propertyMeasured: Relative MIC
Please give only the number in your answer, with no unit.

Request: What value of Relative MIC has been recorded for this entry: CN[C@@H]1[C@@H](O[C@H]2O[C@H](CO)[C@@H](N)[C@H](O)[C@H]2O)OC2C[C@@H](N)[C@@H](O[C@H]3[C@H](O)[C@@H](O)[C@H](N)C[C@@H]3N)OC2[C@@H]1O (stereo partly shown)
Response: 8

Request: Input C[C@H]1c2cccc(O)c2C(=O)C2=C(O)[C@]3(O)C(=O)C(C(N)=O)=C(O)[C@@H](N(C)C)[C@@H]3[C@@H](O)[C@@H]21
Response: 4

Request: Then what about the molecule C[C@@H](O)[C@H]1C(=O)N2C(C(=O)O)=C(S[C@H]3CC[S@@+]([O-])C3)S[C@H]12 ?
Response: 1

Request: Here is the next molecule: CC(C)C[C@@H]1NC(=O)[C@@H](Cc2ccccc2)NC(=O)[C@H](CCN)NC(=O)[C@@H](NC(=O)[C@H](CN)NC(=O)[C@@H](NC(=O)C[C@H](CN)c2cccc(Cl)c2)[C@@H](C)O)CCNC(=O)[C@H]([C@@H](C)O)NC(=O)[C@H](CCN)NC(=O)[C@H](CCN)NC1=O [SPR206] (X1-T[Dap][Dab][Dab][dF]L[Dab][Dab]T; lactam 3-C (inferred); N-terminus assumed)
Response: 64
